Data provenance is patent US20210179680A1.

Target: TRB3/MDM2 protein interaction (Homo sapiens)
Construct: host or cells: BEAS-2B
Sequence (Q96RU7 whole entry): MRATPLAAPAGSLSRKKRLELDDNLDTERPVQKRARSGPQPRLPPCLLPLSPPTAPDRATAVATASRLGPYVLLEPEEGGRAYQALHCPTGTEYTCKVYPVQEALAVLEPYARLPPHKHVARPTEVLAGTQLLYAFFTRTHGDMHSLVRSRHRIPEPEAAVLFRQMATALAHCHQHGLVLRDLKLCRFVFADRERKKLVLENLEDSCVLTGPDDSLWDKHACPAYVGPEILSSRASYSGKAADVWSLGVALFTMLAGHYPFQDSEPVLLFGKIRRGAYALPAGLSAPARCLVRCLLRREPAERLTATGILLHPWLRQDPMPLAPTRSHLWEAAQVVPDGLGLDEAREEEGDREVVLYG
Assay procedure: Co-immunoprecipitation: inhibition of binding of MDM2 to TRB3 in BEAS-2B cells
Assay type: cell-based
Settings: BEAS-2B cells with TRB3 expression plasmid, 1 mg/mL polypeptide, 12 hours, co-IP with MDM2 antibody
Bridge positions count the residues as written; N and C are the ends. Square brackets hold non-standard residues; d marks the D form. Peptide text beside a SMILES is read from it. S5 = C=CCCC[C@](C)(N)C(=O)O
Measured metric: interaction of TRB3 and MDM2 protein (FIG. 5, in words)

Compound	Observed
CC(C)C[C@H](NC(=O)[C@H](CCCCN)NC(=O)[C@H](CCCCN)NC(=O)[C@H](C)NC(=O)[C@H](CS)NC(=O)[C@]1(C)CCCC=CCCC[C@](C)(NC(=O)[C@H](CC(C)C)NC(=O)[C@@H](N)Cc2c[nH]cn2)C(=O)N[C@@H](C)C(=O)N[C@@H](CS)C(=O)N[C@@H](Cc2ccccc2)C(=O)N1)C(=O)N[C@@H](CCCCN)C(=O)N[C@@H](CCCCN)C(=O)N[C@@H](CCCNC(=N)N)C(=O)O [S3] (H-HL[S5]ACF[S5]CAKKLKKR-OH; staple 3-7; N-terminus and C-terminus assumed)	interrupted
CSCC[C@H](NC(=O)[C@H](CC(C)C)NC(=O)[C@@H](N)Cc1c[nH]cn1)C(=O)N[C@@H](C)C(=O)N[C@@H](CS)C(=O)N[C@@H](Cc1ccccc1)C(=O)N[C@H](C(=O)N[C@@H](CS)C(=O)N[C@@]1(C)CCCC=CCCC[C@@](C)(C(=O)N[C@@H](CCCCN)C(=O)N[C@@H](CCCNC(=N)N)C(=O)O)NC(=O)[C@H](CC(C)C)NC(=O)[C@H](CCCCN)NC(=O)[C@H](CCCCN)NC1=O)[C@@H](C)O [S9] (H-HLMACFTC[S5]KKL[S5]KR-OH; staple 9-13; N-terminus and C-terminus assumed)	interrupted
CSCC[C@H](NC(=O)[C@H](CC(C)C)NC(=O)[C@@H](N)Cc1c[nH]cn1)C(=O)N[C@@]1(C)CCCC=CCCC[C@@](C)(C(=O)N[C@@H](C)C(=O)N[C@@H](CCCCN)C(=O)N[C@@H](CCCCN)C(=O)N[C@@H](CC(C)C)C(=O)N[C@@H](CCCCN)C(=O)N[C@@H](CCCCN)C(=O)N[C@@H](CCCNC(=N)N)C(=O)O)NC(=O)[C@H]([C@@H](C)O)NC(=O)[C@H](Cc2ccccc2)NC(=O)[C@H](CS)NC1=O [S4] (H-HLM[S5]CFT[S5]AKKLKKR-OH; staple 4-8; N-terminus and C-terminus assumed)	interrupted
CSCC[C@H](NC(=O)[C@H](CC(C)C)NC(=O)[C@@H](N)Cc1c[nH]cn1)C(=O)N[C@@H](C)C(=O)N[C@@H](CS)C(=O)N[C@@H](Cc1ccccc1)C(=O)N[C@H](C(=O)N[C@@H](CS)C(=O)N[C@@H](C)C(=O)N[C@@H](CCCCN)C(=O)N[C@@H](CCCCN)C(=O)N[C@@H](CC(C)C)C(=O)N[C@@H](CCCCN)C(=O)N[C@@H](CCCCN)C(=O)N[C@@H](CCCNC(=N)N)C(=O)O)[C@@H](C)O [MR2] (H-HLMACFTCAKKLKKR-OH; N-terminus and C-terminus assumed)	interrupted

---

In this section we review reported Survival rate (%) 21 days values for a set of compounds.
System: mice with bleomycin-induced pulmonary fibrosis
Assay procedure: Survival rate of mice with bleomycin-induced pulmonary fibrosis
Format: in vivo, C57BL/6 mice
Settings: Table 3 groups: 2 mg/kg i.p., 10th to 28th day after modeling, twice a week; 21 days
Bridge positions count the residues as written; N and C are the ends. Square brackets hold non-standard residues; d marks the D form. Peptide text beside a SMILES is read from it. S5 = C=CCCC[C@](C)(N)C(=O)O
Give your result in % as a bare value.

Look over these answered cases.
Compound	Survival rate (%) 21 days
CSCC[C@H](NC(=O)[C@H](CC(C)C)NC(=O)[C@@H](N)Cc1c[nH]cn1)C(=O)N[C@@H](C)C(=O)N[C@@H](CS)C(=O)N[C@@]1(C)CCCC=CCCC[C@@](C)(C(=O)N[C@@H](CCCCN)C(=O)N[C@@H](CC(C)C)C(=O)N[C@@H](CCCCN)C(=O)N[C@@H](CCCCN)C(=O)N[C@@H](CCCNC(=N)N)C(=O)O)NC(=O)[C@H](C)NC(=O)[C@H](CS)NC(=O)[C@H]([C@@H](C)O)NC1=O [S6] (H-HLMAC[S5]TCA[S5]KLKKR-OH; staple 6-10; N-terminus and C-terminus assumed)	80
CSCC[C@H](NC(=O)[C@H](CC(C)C)NC(=O)[C@@H](N)Cc1c[nH]cn1)C(=O)N[C@@H](C)C(=O)N[C@@]1(C)CCCC=CCCC[C@@](C)(C(=O)N[C@@H](CCCCN)C(=O)N[C@@H](CCCCN)C(=O)N[C@@H](CC(C)C)C(=O)N[C@@H](CCCCN)C(=O)N[C@@H](CCCCN)C(=O)N[C@@H](CCCNC(=N)N)C(=O)O)NC(=O)[C@H](CS)NC(=O)[C@H]([C@@H](C)O)NC(=O)[C@H](Cc2ccccc2)NC1=O [S5] (H-HLMA[S5]FTC[S5]KKLKKR-OH; staple 5-9; N-terminus and C-terminus assumed)	93.33
CSCC[C@H](NC(=O)[C@H](CC(C)C)NC(=O)[C@@H](N)Cc1c[nH]cn1)C(=O)N[C@@H](C)C(=O)N[C@@H](CS)C(=O)N[C@@H](Cc1ccccc1)C(=O)N[C@@]1(C)CCCC=CCCC[C@@](C)(C(=O)N[C@@H](CC(C)C)C(=O)N[C@@H](CCCCN)C(=O)N[C@@H](CCCCN)C(=O)N[C@@H](CCCNC(=N)N)C(=O)O)NC(=O)[C@H](CCCCN)NC(=O)[C@H](C)NC(=O)[C@H](CS)NC1=O [S7] (H-HLMACF[S5]CAK[S5]LKKR-OH; staple 7-11; N-terminus and C-terminus assumed)	93.33
CSCC[C@H](NC(=O)[C@H](CC(C)C)NC(=O)[C@@H](N)Cc1c[nH]cn1)C(=O)N[C@@H](C)C(=O)N[C@@H](CS)C(=O)N[C@@H](Cc1ccccc1)C(=O)N[C@H](C(=O)N[C@@]1(C)CCCC=CCCC[C@@](C)(C(=O)N[C@@H](CCCCN)C(=O)N[C@@H](CCCCN)C(=O)N[C@@H](CCCNC(=N)N)C(=O)O)NC(=O)[C@H](CCCCN)NC(=O)[C@H](CCCCN)NC(=O)[C@H](C)NC1=O)[C@@H](C)O [S8] (H-HLMACFT[S5]AKK[S5]KKR-OH; staple 8-12; N-terminus and C-terminus assumed)	93.33
CSCC[C@H](NC(=O)[C@H](CC(C)C)NC(=O)[C@@H](N)Cc1c[nH]cn1)C(=O)N[C@@H](C)C(=O)N[C@@H](CS)C(=O)N[C@@H](Cc1ccccc1)C(=O)N[C@H](C(=O)N[C@@H](CS)C(=O)N[C@@H](C)C(=O)N[C@@]1(C)CCCC=CCCC[C@@](C)(C(=O)N[C@@H](CCCNC(=N)N)C(=O)O)NC(=O)[C@H](CCCCN)NC(=O)[C@H](CC(C)C)NC(=O)[C@H](CCCCN)NC1=O)[C@@H](C)O [S10] (H-HLMACFTCA[S5]KLK[S5]R-OH; staple 10-14; N-terminus and C-terminus assumed)	80
CSCC[C@H](NC(=O)[C@H](CC(C)C)NC(=O)[C@@H](N)Cc1c[nH]cn1)C(=O)N[C@@H](C)C(=O)N[C@@H](CS)C(=O)N[C@@H](Cc1ccccc1)C(=O)N[C@H](C(=O)N[C@@H](CS)C(=O)N[C@@H](C)C(=O)N[C@@H](CCCCN)C(=O)N[C@@H](CCCCN)C(=O)N[C@@H](CC(C)C)C(=O)N[C@@H](CCCCN)C(=O)N[C@@H](CCCCN)C(=O)N[C@@H](CCCNC(=N)N)C(=O)O)[C@@H](C)O [MR2] (H-HLMACFTCAKKLKKR-OH; N-terminus and C-terminus assumed)	73.33

Q) For the compound shown here, CSCC[C@@H]1NC(=O)[C@H](CC(C)C)NC(=O)[C@@](C)(N)CCCC=CCCC[C@@](C)(C(=O)N[C@@H](Cc2ccccc2)C(=O)N[C@H](C(=O)N[C@@H](CS)C(=O)N[C@@H](C)C(=O)N[C@@H](CCCCN)C(=O)N[C@@H](CCCCN)C(=O)N[C@@H](CC(C)C)C(=O)N[C@@H](CCCCN)C(=O)N[C@@H](CCCCN)C(=O)N[C@@H](CCCNC(=N)N)C(=O)O)[C@@H](C)O)NC(=O)[C@H](C)NC1=O [S1] (H-[S5]LMA[S5]FTCAKKLKKR-OH; staple 1-5; N-terminus and C-terminus assumed) , give the reported Survival rate (%) 21 days.
A) 80

Q) Field request: Survival rate (%) 21 days | item: CSCC[C@@H]1NC(=O)[C@@](C)(NC(=O)[C@@H](N)Cc2c[nH]cn2)CCCC=CCCC[C@@](C)(C(=O)N[C@H](C(=O)N[C@@H](CS)C(=O)N[C@@H](C)C(=O)N[C@@H](CCCCN)C(=O)N[C@@H](CCCCN)C(=O)N[C@@H](CC(C)C)C(=O)N[C@@H](CCCCN)C(=O)N[C@@H](CCCCN)C(=O)N[C@@H](CCCNC(=N)N)C(=O)O)[C@@H](C)O)NC(=O)[C@H](CS)NC(=O)[C@H](C)NC1=O [S2] (H-H[S5]MAC[S5]TCAKKLKKR-OH; staple 2-6; N-terminus and C-terminus assumed)
A) 80

Q) Returns the measured Survival rate (%) 21 days for the input compound. Input: CSCC[C@H](NC(=O)[C@H](CC(C)C)NC(=O)[C@@H](N)Cc1c[nH]cn1)C(=O)N[C@@H](C)C(=O)N[C@@H](CS)C(=O)N[C@@H](Cc1ccccc1)C(=O)N[C@H](C(=O)N[C@@H](CS)C(=O)N[C@@H](C)C(=O)N[C@@H](CCCCN)C(=O)N[C@@]1(C)CCCC=CCCC[C@@](C)(C(=O)O)NC(=O)[C@H](CCCCN)NC(=O)[C@H](CCCCN)NC(=O)[C@H](CC(C)C)NC1=O)[C@@H](C)O [S11] (H-HLMACFTCAK[S5]LKK[S5]-OH; staple 11-15; N-terminus and C-terminus assumed)
A) 86.67
